assay: in vivo; details: female, rhesus monkey, Tissue concentration, Ileum
Please go through the items and note down their concentration at 3 weeks.
The figure you give is taken to be in ng/g; do not add the unit.

Documented concentration at 3 weeks of Cc1cc(/C=C/C#N)cc(C)c1Nc1ccnc(Nc2ccc(C#N)cc2)n1 : 518

molecule C[C@H]1CO[C@@H]2Cn3cc(C(=O)NCc4ccc(F)cc4F)c(=O)c(O)c3C(=O)N12 , concentration at 3 weeks observed: 695

###

Provide the reported concentration at 3 weeks of each item.
experiment: in vivo; settings: female, rhesus monkey, Tissue concentration, Inguinal lymph nodes
Quote the value and follow it with the unit of measurement.

// Cc1cc(/C=C/C#N)cc(C)c1Nc1ccnc(Nc2ccc(C#N)cc2)n1 : concentration at 3 weeks value = 692 ng/g

Item: C[C@H]1CO[C@@H]2Cn3cc(C(=O)NCc4ccc(F)cc4F)c(=O)c(O)c3C(=O)N12 | concentration at 3 weeks: 975 ng/g
